test: PAMPA-BBB membrane permeability assay; details: pig, PAMPA, pH 7.4
test_readout: Papp at 100 μg/ml

[
  {
    "molecule": "COc1cccc(CC(CO)C(CO)Cc2cccc(OC)c2)c1 (stereo not shown)",
    "observed_measurement": "20.9 ×10⁻⁶ cm/s"
  }
]
